Quick list: melting point per entry.

Recorded results for 3 compounds are shown here.
Compound	melting point
N#Cc1ccc(Oc2cccc(N)c2)cc1	86 to 88 °C
O=C(Nc1ccccc1)C(Cl)C(=O)c1ccccc1 (configuration not stated)	113 to 115 °C
Cc1cccc(C)c1OCCC(=O)O	51 to 53 °C

Turning now to a further compound:
IN: Given Cn1cnnc1SCc1ccc(C(=O)O)o1 , state its recorded melting point.
OUT: 179 to 181 °C

* * *

Quick list: melting point per entry.

Recorded results for 10 molecules are shown here.
Molecule	melting point
O=C(O)C1CCC(NC(=O)C2CCCC2)CC1 (centres undefined)	161 to 163 °C
NC(c1ccncc1)c1ccc(F)cc1 (centres undefined)	63 to 65 °C
CCN(CC)S(=O)(=O)c1cc(C(=O)O)ccc1OC	182 to 184 °C
CC1(c2ccc([N+](=O)[O-])cc2)NC(=O)NC1=O (centres undefined)	235 to 237 °C
OCc1cn(-c2ccc(Cl)c(Cl)c2)nn1	142 to 144 °C
C#CCOc1cccc(C#N)c1	61 to 63 °C
COC(=O)c1ccc(=O)[nH]n1	188 to 190 °C
Nc1nc(-c2c[nH]c3ccccc23)cs1	167 to 169 °C
CSc1ccc(C=CC(=O)O)cc1	177 to 179 °C
O=C(O)c1cc(=O)[nH]c2cc(F)ccc12	323 to 325 °C

IN: Given O=C(O)c1ccc(-c2nc(C3CC3)no2)cc1 , state its recorded melting point.
OUT: 241 to 243 °C

IN: # iterate: CC1(C)CC(C)(C)c2cc(O)ccc21
OUT: 99 to 101 °C

IN: # iterate: Cn1c(NN)nnc1-c1ccccc1
OUT: 147 to 149 °C

IN: # iterate: Nc1nc2cc3c(cc2s1)OCCO3
OUT: 203 to 205 °C

IN: # iterate: O=C(O)CN1CCCNC1=O
OUT: 248 to 250 °C
